The following molecules are shown together with reported growth values.
System: CCRF-CEM leukemia
Test: NCI-60 one-dose screen, 48 h (100 = growth as untreated, 0 = no growth, -100 = all killed)
Details: 10 µM unless noted
Protocol: Growth inhibition of the CCRF-CEM human tumor cell line is measured as a screen for anti-cancer activity. Cells are grown in 96 well plates and exposed to the test compound for 48 hours. Compounds are tested at a single concentration, which is 10^-5 M for most compounds. The reported endpoint is percent growth (GI% or GIPRCNT), where numbers from 0 - 100% represent growth inhibition, and numbers from -100% - 0 represent cell death. For example, a value of 40 represents 60% growth inhibition. […]
The panel holds about 83,000 compounds, 20% with a hit somewhere; the sample as a whole holds those more often. Activity calls are given as the source filed them. Rule for the calls: active = growth percent below 10; inactive = the rest.

{"columns": ["molecule", "growth"],
 "data": [
  ["COc1ccccc1-c1ccc2nc(NC(=O)Nc3cc(C(F)(F)F)cc(C(F)(F)F)c3)sc2c1", "0.889% (active)"],
  ["CC(=O)c1ccc(NC(=O)CSc2nnc(-c3cc(-c4ccc(C)cc4)nc4ccccc34)o2)cc1", "53.6% (inactive)"],
  ["Cc1cccc(C)c1NC(=O)CN(CC(C)C)CC(O)COc1ccccc1 (stereo not drawn)", "96.9% (inactive)"],
  ["Nc1c(C(=O)Nc2cccc3ccccc23)sc2nc3c(cc12)COCC3", "23.6% (inactive)"],
  ["COc1cc(N=Nc2cc(S(=O)(=O)O)cc3cc(S(=O)(=O)O)cc(O)c23)c(C)cc1N=Nc1c(S(=O)(=O)O)cc2cc(Nc3ccccc3)ccc2c1O", "100% (inactive)"],
  ["C=C1C(=O)O[C@H]2[C@H]1CC/C(COC(=O)n1ccnc1)=C\\CC[C@@]1(C)O[C@@H]21", "74.3% (inactive)"],
  ["CCOC(=O)c1c(-c2ccc(O)cc2)c(C#N)c2c(C#N)c(N)nn2c1N", "35.7% (inactive)"],
  ["C=C1C(=O)O[C@H]2[C@H]1CC/C(COC(=O)CCCCCCC(=O)OC/C1=C/CC[C@@]3(C)O[C@H]3[C@H]3OC(=O)C(=C)[C@@H]3CC1)=C\\CC[C@@]1(C)O[C@@H]21", "4.54% (active)"]
]}
